inhibition at 1 µM values for the molecules below.
measuredOn: UniProtKB P07948
Sequence (P07948 whole entry): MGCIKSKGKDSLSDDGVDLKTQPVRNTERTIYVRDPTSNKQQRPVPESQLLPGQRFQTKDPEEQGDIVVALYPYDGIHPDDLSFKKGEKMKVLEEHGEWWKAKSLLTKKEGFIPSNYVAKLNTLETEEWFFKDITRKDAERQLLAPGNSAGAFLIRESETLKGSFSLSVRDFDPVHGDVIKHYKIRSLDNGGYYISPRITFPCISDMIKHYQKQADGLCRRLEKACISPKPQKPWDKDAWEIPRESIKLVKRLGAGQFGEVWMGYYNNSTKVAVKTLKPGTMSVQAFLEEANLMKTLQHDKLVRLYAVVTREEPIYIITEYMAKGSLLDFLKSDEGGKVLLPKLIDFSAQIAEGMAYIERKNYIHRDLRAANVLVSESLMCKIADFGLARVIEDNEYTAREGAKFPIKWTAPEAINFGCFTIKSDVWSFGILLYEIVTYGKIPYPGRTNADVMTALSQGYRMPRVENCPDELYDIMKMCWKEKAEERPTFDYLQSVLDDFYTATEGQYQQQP
protocol: in vitro Lyn tyrosine kinase inhibition
Format: biochemical
conditionNotes: 1 uM compound; read-out: % inhibition against Lyn

Example results:
molecule: CN1CCN(c2nc3ncnc(Nc4cccc(O)c4)c3s2)CC1 [LCB 03-0100]
observedMeasurement: > 30%
--
molecule: Oc1cccc(Nc2ncnc3cc(-c4cc(CN5CCCC5)co4)sc23)c1 [LCB 03-0113]
observedMeasurement: > 50%
--
molecule: COc1cccc(Nc2ncnc3cc(-c4ccco4)sc23)c1 [LCB 03-0023]
observedMeasurement: > 40%
--
molecule: CN1CCN(Cc2ccc(-c3cc4ncnc(Nc5cccc(O)c5)c4s3)s2)CC1 [LCB 03-0092]
observedMeasurement: > 60%
--
molecule: COc1cccc(Nc2ncnc3cc(-c4ccc(OCCc5ccccc5)cc4)sc23)c1 [LCB 03-0021]
observedMeasurement: > 60%
--
molecule: Oc1cccc(Nc2ncnc3cc(-c4ccc(N5CCOCC5)cc4)sc23)c1 [LCB 03-0082]
observedMeasurement: > 70%

Prompt line: # input molecule: CN1CCN(Cc2cccc(-c3cc4nccc(Nc5cccc(O)c5)c4s3)c2)CC1 [LCB 03-0108] ; wanted: its inhibition at 1 µM
Response line: > 80%

Prompt line: # input molecule: Oc1cccc(Nc2ncnc3cc(-c4ccc(CN5CCCCC5)cc4)sc23)c1 [LCB 03-0035] ; wanted: its inhibition at 1 µM
Response line: > 80%

The reported numbers originate from patent US9062066B2.
